Data origin: patent US20240124398A1

test-name: Static storage for 7 days at 40° C./75% RH (XRPD and HPLC)
condition-notes: XRPD pattern after 7 days at 40° C. and 75% relative humidity
measured-parameter: Static Storage 40° C./75% RH: XRPD

> print(dat)
                                   molecule                  measured.parameter       observed
1  CN(C)CCc1c[nH]c2cccc(O)c12.O=S(=O)(O)c1cccc2c(S(=O)(=O)O)cccc12 [Psilocin 1,5-napthalenedisulfonate NAP Pattern 1]  Static Storage 40° C./75% RH: XRPD  NAP Pattern 1
2  CN(C)CCc1c[nH]c2cccc(O)c12.O=S(=O)(O)c1cccc2c(S(=O)(=O)O)cccc12 [Psilocin 1,5-napthalenedisulfonate NAP Pattern 2]  Static Storage 40° C./75% RH: XRPD  NAP Pattern 1
